# System: SiHa
# Assay Explanation: Antiproliferative activity against human SiHa cells
# Assay type: functional, cell-based
Quantity Name: IC50 (µM)
Just the number please, in µM, no unit attached.

Prompt line: Supply reported IC50 belonging to this molecule: CN1CCN(c2ccc(-c3nc(-c4ccc(N5C(=O)c6cccc7c(N8CCN(C)CC8)ccc(c67)C5=O)cc4)[nH]c3-c3ccc(N4CCN(C)CC4)cc3)cc2)CC1
Response line: 5.4

----------
# Tested on: A2780
# Assay Explanation: Cytotoxicity against human A2780 cells assessed as reduction in cell viability by MTT assay
# Format: functional, cell-based
Quantity Name: pIC50
pIC50 here is simply -log10 of the concentration when that concentration is written in mol/L.

COc1cc([C@@H]2c3cc4c(cc3[C@@H](O[C@@H]3O[C@@H]5CO[C@@H](C)O[C@H]5[C@H](O)[C@H]3O)[C@H]3COC(=O)[C@H]23)OCO4)cc(OC)c1O [ETOPOSIDE] : 5.88

Prompt line: Supply reported pIC50 belonging to this molecule: O=[N+]([O-])c1cccc(S(=O)(=O)n2ccnc2-c2ccon2)c1
Response line: 6.20

Prompt line: Supply reported pIC50 belonging to this molecule: COc1cc(OC)c(S(=O)(=O)n2ccnc2-c2ccon2)c(OC)c1
Response line: 5.91

Where do these numbers come from? They come from ChEMBL document CHEMBL6074649.
